Below, each entry is listed with its recorded max. fold increase (maximum fold increase of SMN protein).
Tested on: SMN protein
method.summary: SMN protein assay (HTRF) in cultured SMA patient fibroblast cells
Type: cell-based
condition.label: SMA Type 1 human fibroblasts GM03813, 48 hours, 7-point concentration data; fold vs vehicle control
Where a name gives a salt, the structure may show the parent alone.
Lab note: jot the number down without any unit.

Examples with their reported max. fold increase (maximum fold increase of SMN protein) follow.
>>> experimental_value("Cc1cn2cc(NC(=O)c3ccc(N4CCN5CCC[C@H]5C4)cc3F)cc(C(F)(F)F)c2n1")
1.6275
>>> experimental_value("Cc1cn2cc(NC(=O)c3ccc(N4CCN[C@@H](C)C4)cc3F)cc(F)c2n1 [Example 50, hydrochloride]")
1.6607

// query Could you share which max. fold increase (maximum fold increase of SMN protein) value was measured for Cc1cn2cc(NC(=O)c3ccc(N4CCNC(C)C4)cc3F)nc2c(C)n1 (racemic) ?
// result 1.7757

====

Below, each entry is listed with its recorded EC (1.5-fold).
Test system: full length SMN2 minigene mRNA (FL SMN2mini) in HEK293H cells stably transfected with the SMN2-A minigene construct
method.summary: SMN2 minigene mRNA splicing RT-qPCR assay in cultured cells
Type: cell-based
condition.label: Homo sapiens, HEK293-H, 24 hours, 7-point concentration curve, concentration giving 1.5-fold FL SMN2mini mRNA vs vehicle, read-out: EC1.5x minigene (EC1.5x concentration for production of full length SMN2 minigene mRNA)
Structures can show the parent of a compound that is named as a salt.
Expressed in µM, but write only the number.

Examples with their reported EC (1.5-fold) follow.
>>> experimental_value("Cc1nc2ccc(NC(=O)c3ccc(N4CCNC(C)C4)cc3F)cc2o1 (racemic) [Example 38, dihydrochloride]")
0.472
>>> experimental_value("Cc1cn2cc(NC(=O)c3ccc(N4CCN(C)CC4)cc3F)nc2c(C)n1")
0.232
>>> experimental_value("Cc1cn2cc(NC(=O)c3ccc(C4CCN(C)CC4)nc3)ccc2n1")
0.622
>>> experimental_value("Cc1cn2cc(NC(=O)c3ccc(N4CCNC(C)C4)cn3)cc(F)c2n1 (racemic) [Example 43, dihydrochloride]")
0.057
>>> experimental_value("Cc1cn2cc(NC(=O)c3ccc(N4CCNC(C)C4)nc3)cc(Cl)c2n1 (racemic) [Example 55, dihydrochloride]")
0.141
>>> experimental_value("Cc1cn2cc(NC(=O)c3ccc(N4CCN[C@@H](C)C4)cc3)nc2c(C)n1")
0.552
>>> experimental_value("Cc1cn2cc(NC(=O)c3ccc(C4=CCNCC4)nc3)cc(F)c2n1 [Example 62, dihydrochloride]")
0.0136
>>> experimental_value("Cc1cn2cc(NC(=O)c3ccc(N4CC5(CNC5)C4)nc3)ccc2n1 [Example 16, hydrochloride]")
1.04

// query Could you share which EC (1.5-fold) value was measured for Cc1cn2cc(NC(=O)c3ccc(N4CCN[C@H](C)C4)cc3F)cc(F)c2n1 [Example 51, hydrochloride] ?
// result 0.0084

// query Could you share which EC (1.5-fold) value was measured for COc1nc(N2CCNC(C)C2)ccc1C(=O)Nc1cc(F)c2nc(C)cn2c1 (racemic) ?
// result 0.0161

// query Could you share which EC (1.5-fold) value was measured for Cc1cn2cc(NC(=O)c3ccc(N4CCNC(C)C4)nc3)ccc2n1 (racemic) ?
// result 0.312

// query Could you share which EC (1.5-fold) value was measured for Cc1cn2cc(NC(=O)c3ccc(N4CCNC(C)C4)nc3)cc(C(F)(F)F)c2n1 (racemic) ?
// result 0.489
